Target: hIL-2Rα (human)
Assay: SPR, Biacore T200; hIL-2Rα on CM5 chip through His capture kit, binder as analyte
pKd: −log10 of the molar value.

>  <substance>
Aldesleukin (trade name: PROLEUKIN, Novartis) (ligand)

>  <pKd>
7.30

$$$$

---

Biological target: hIL-2Rβ (human) (UniProt P14784)
Sequence (P14784 27-239): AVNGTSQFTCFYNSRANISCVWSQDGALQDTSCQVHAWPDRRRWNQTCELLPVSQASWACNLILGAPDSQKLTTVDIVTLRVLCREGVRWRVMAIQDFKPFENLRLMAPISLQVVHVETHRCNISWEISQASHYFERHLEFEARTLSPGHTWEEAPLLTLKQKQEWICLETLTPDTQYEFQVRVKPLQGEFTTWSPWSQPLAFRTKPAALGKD
Assay: SPR, Biacore T200; hIL-2Rβ as analyte; three-step format as the filing describes it

>  <substance>
Aldesleukin (trade name: PROLEUKIN, Novartis) (ligand)

>  <test system>
hIL-2Rβ (human) (UniProt P14784)

>  <Kd [µM]>
2.08

$$$$
